Attribution: PubChem BioAssay AID1963975

Tested on: 624824-186-R-J2-PDC multicell spheroids, viability
method.notes: Anticancer human tumor 624824-186-R-J2-PDC patient-derived colon adenocarcinoma cell line growth inhibition [PI3K]
condition.details: second compound 0.0316 µM; first compound 0.1 µM; hits give low values
hey, just use 1 if measured viability, T/C is less than 80%, otherwise 0

Illustrative cases are given below, each with its answer.
CCN1CCN(Cc2ccc(Nc3ncc(F)c(-c4cc(F)c5nc(C)n(C(C)C)c5c4)n3)nc2)CC1 + CC(Nc1ccc2c(c1)OCCn1cc(N3C(=O)OCC3C(F)F)nc1-2)C(N)=O | 1
CCN1CCN(Cc2ccc(Nc3ncc(F)c(-c4cc(F)c5nc(C)n(C(C)C)c5c4)n3)nc2)CC1 + CC(Nc1ncnc2nc[nH]c12)c1cc2cccc(Cl)c2c(=O)n1-c1ccccc1 | 0
C=CC(=O)N1CCN(c2nc(=O)n(-c3c(C)ccnc3C(C)C)c3nc(-c4c(O)cccc4F)c(F)cc23)C(C)C1 (stereo unspecified) + COc1c(OCCCN2CCOCC2)ccc2c3n(c(=NC(=O)c4cnc(N)nc4)nc12)CCN3 | 0
CC1(C)CCC(Nc2ncc(C(F)(F)F)c(-c3c[nH]c4c(P(C)(C)=O)c(C#N)ccc34)n2)CN1 (stereo unspecified) + Cc1nc(NC(=O)N2CCCC2C(N)=O)sc1-c1ccnc(C(C)(C)C(F)(F)F)c1 | 0
CC1(C)CCC(Nc2ncc(C(F)(F)F)c(-c3c[nH]c4c(P(C)(C)=O)c(C#N)ccc34)n2)CN1 (stereo unspecified) + CC(Nc1ccc2c(c1)OCCn1cc(N3C(=O)OCC3C(F)F)nc1-2)C(N)=O | 1
Cn1ncc(Cl)c1-c1cc(C(=O)NC(CN)Cc2cccc(F)c2)sc1Cl (stereo unspecified) + CC(Nc1ncnc2nc[nH]c12)c1cc2cccc(Cl)c2c(=O)n1-c1ccccc1 | 0
CNC(=O)c1ccc(N2C(=S)N(c3ccc(C#N)c(C(F)(F)F)c3)C(=O)C2(C)C)cc1F + Cc1nc(NC(=O)N2CCCC2C(N)=O)sc1-c1ccnc(C(C)(C)C(F)(F)F)c1 | 0
CCCS(=O)(=O)Nc1ccc(F)c(C(=O)c2c[nH]c3ncc(-c4ccc(Cl)cc4)cc23)c1F + COc1c(OCCCN2CCOCC2)ccc2c3n(c(=NC(=O)c4cnc(N)nc4)nc12)CCN3 | 1

Now consider the entry below.
Prompt: Consider CCN1CCN(Cc2ccc(Nc3ncc(F)c(-c4cc(F)c5nc(C)n(C(C)C)c5c4)n3)nc2)CC1 + COc1c(OCCCN2CCOCC2)ccc2c3n(c(=NC(=O)c4cnc(N)nc4)nc12)CCN3 . Does its viability, T/C lie strictly below 80%?
Response: 1

###

Tested on: 624824-186-R-J2-PDC multicell spheroids, viability
method.notes: Anticancer human tumor 624824-186-R-J2-PDC cell line growth inhibition [PI3K];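 note: spheroids exposed to agents for 7 days before viability read; 100% = DMSO vehicle treated spheroids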
condition.details: second compound 3.16 µM; first compound 3.16 µM; hits give low values
So basically: is viability, T/C under 80%? Then Criterion met. Not under? Then Criterion not met.

Recorded results for 3 compounds are shown here.
Cn1ncc(Cl)c1-c1cc(C(=O)NC(CN)Cc2cccc(F)c2)sc1Cl (stereo not given) + Cc1nc(NC(=O)N2CCCC2C(N)=O)sc1-c1ccnc(C(C)(C)C(F)(F)F)c1 | Criterion met
Cn1nccc1Nc1nccc(-c2ccn(C(CO)c3ccc(Cl)c(F)c3)c(=O)c2)n1 (stereo not given) + CC(Nc1ncnc2nc[nH]c12)c1cc2cccc(Cl)c2c(=O)n1-c1ccccc1 | Criterion met
CC(Cn1ccc(-c2ccc(C#N)c(Cl)c2)n1)NC(=O)c1cc(C(C)O)[nH]n1 (stereo not given) + CC(Nc1ncnc2nc[nH]c12)c1cc2cccc(Cl)c2c(=O)n1-c1ccccc1 | Criterion not met

Could you now look at the following compound, please?
Prompt: Quick check: does C#Cc1c(F)ccc2cc(O)cc(-c3ncc4c(N5CC6CCC(C5)N6)nc(OCC56CCCN5CC(F)C6)nc4c3F)c12 (stereo not given) + CC(Nc1ncnc2nc[nH]c12)c1cc2cccc(Cl)c2c(=O)n1-c1ccccc1 have viability, T/C under 80%?
Response: Criterion not met

###

System: 624824-186-R-J2-PDC multicell spheroids, viability
method.notes: Anticancer human tumor 624824-186-R-J2-PDC cell line growth inhibition [PI3K];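 note: spheroids exposed to agents for 7 days before viability read; 100% = DMSO vehicle treated spheroids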
condition.details: second compound 0.01 µM; first compound 10 µM; hits give low values
Kindly state viability, T/C for each of the entries shown.
Answers are plain numbers, in %.

Solved entries (count: 3):
CC(C)NCC(C(=O)N1CCN(c2ncnc3c2C(C)CC3O)CC1)c1ccc(Cl)cc1 (centres undefined) + COc1c(OCCCN2CCOCC2)ccc2c3n(c(=NC(=O)c4cnc(N)nc4)nc12)CCN3 | 79.8
C=CC(=O)N1CCN(c2nc(=O)n(-c3c(C)ccnc3C(C)C)c3nc(-c4c(O)cccc4F)c(F)cc23)C(C)C1 (centres undefined) + CC(Nc1ccc2c(c1)OCCn1cc(N3C(=O)OCC3C(F)F)nc1-2)C(N)=O | 96.9
CC1(C)CCC(Nc2ncc(C(F)(F)F)c(-c3c[nH]c4c(P(C)(C)=O)c(C#N)ccc34)n2)CN1 (centres undefined) + COc1c(OCCCN2CCOCC2)ccc2c3n(c(=NC(=O)c4cnc(N)nc4)nc12)CCN3 | 4.78

Prompt: Endpoint output: viability, T/C of CCCS(=O)(=O)Nc1ccc(F)c(C(=O)c2c[nH]c3ncc(-c4ccc(Cl)cc4)cc23)c1F + COc1c(OCCCN2CCOCC2)ccc2c3n(c(=NC(=O)c4cnc(N)nc4)nc12)CCN3 . Value?
Response: 38

###

System: 624824-186-R-J2-PDC multicell spheroids, viability
method.notes: Anticancer human tumor 624824-186-R-J2-PDC cell line growth inhibition [PI3K];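 note: spheroids exposed to agents for 7 days before viability read; 100% = DMSO vehicle treated spheroids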
condition.details: second compound 3.16 µM; first compound 0.316 µM; hits give low values
Description: Combinatorial screen of targeted agents with the PI3K inhibitors inavolisib, alpelisib, duvelisib, and copanlisib in multi-cell type tumor spheroids A high-throughput screen of multi-cell type tumor spheroids was designed to identify active combinations of targeted small molecules and PI3K pathway inhibitors. […] Compounds. […] If the clinical Cmax for an agent had not been determined, the highest concentration tested was 10 microM. […]
In plain terms, low viability, T/C, meaning strictly below 90%, gives Criterion met, and everything else gives Criterion not met.

Worked cases, answers included:
CC(Cn1ccc(-c2ccc(C#N)c(Cl)c2)n1)NC(=O)c1cc(C(C)O)[nH]n1 (stereo unspecified) + CC(Nc1ncnc2nc[nH]c12)c1cc2cccc(Cl)c2c(=O)n1-c1ccccc1 | Criterion met
Cn1ncc(Cl)c1-c1cc(C(=O)NC(CN)Cc2cccc(F)c2)sc1Cl (stereo unspecified) + Cc1nc(NC(=O)N2CCCC2C(N)=O)sc1-c1ccnc(C(C)(C)C(F)(F)F)c1 | Criterion met
CCCS(=O)(=O)Nc1ccc(F)c(C(=O)c2c[nH]c3ncc(-c4ccc(Cl)cc4)cc23)c1F + CC(Nc1ncnc2nc[nH]c12)c1cc2cccc(Cl)c2c(=O)n1-c1ccccc1 | Criterion met
CC(C)NCC(C(=O)N1CCN(c2ncnc3c2C(C)CC3O)CC1)c1ccc(Cl)cc1 (stereo unspecified) + CC(Nc1ncnc2nc[nH]c12)c1cc2cccc(Cl)c2c(=O)n1-c1ccccc1 | Criterion not met
CC1(C)CCC(Nc2ncc(C(F)(F)F)c(-c3c[nH]c4c(P(C)(C)=O)c(C#N)ccc34)n2)CN1 (stereo unspecified) + CC(Nc1ncnc2nc[nH]c12)c1cc2cccc(Cl)c2c(=O)n1-c1ccccc1 | Criterion not met

Prompt: Determine if C=CC(=O)N1CCN(c2nc(=O)n(-c3c(C)ccnc3C(C)C)c3nc(-c4c(O)cccc4F)c(F)cc23)C(C)C1 (stereo unspecified) + CC(Nc1ncnc2nc[nH]c12)c1cc2cccc(Cl)c2c(=O)n1-c1ccccc1 shows viability, T/C strictly lower than 90%.
Response: Criterion met

Prompt: Given C[C@@H](NC(=O)c1ncnc(N)c1Cl)c1ncc(C(=O)Nc2cc(C(F)(F)F)c(Cl)cn2)s1 + CC(Nc1ncnc2nc[nH]c12)c1cc2cccc(Cl)c2c(=O)n1-c1ccccc1 , is recorded viability, T/C strictly lower than 90%?
Response: Criterion met

Prompt: Is 90% strictly greater than the molecule's reported viability, T/C? molecule: Cn1nccc1Nc1nccc(-c2ccn(C(CO)c3ccc(Cl)c(F)c3)c(=O)c2)n1 (stereo unspecified) + CC(Nc1ncnc2nc[nH]c12)c1cc2cccc(Cl)c2c(=O)n1-c1ccccc1
Response: Criterion met

###

Please provide measured viability, T/C for the entries that follow.
Tested on: 624824-186-R-J2-PDC multicell spheroids, viability
method.notes: Anticancer human tumor 624824-186-R-J2-PDC cell line growth inhibition [PI3K];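 note: spheroids exposed to agents for 7 days before viability read; 100% = DMSO vehicle treated spheroids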
condition.details: second compound 0.01 µM; first compound 10 µM; hits give low values
Source text: Combinatorial screen of targeted agents with the PI3K inhibitors inavolisib, alpelisib, duvelisib, and copanlisib in multi-cell type tumor spheroids A high-throughput screen of multi-cell type tumor spheroids was designed to identify active combinations of targeted small molecules and PI3K pathway inhibitors. […] Compounds. […] If the clinical Cmax for an agent had not been determined, the highest concentration tested was 10 microM. […]
Give bare numbers, in %.

Examples with their reported viability, T/C follow.
C[C@@H](NC(=O)c1ncnc(N)c1Cl)c1ncc(C(=O)Nc2cc(C(F)(F)F)c(Cl)cn2)s1 + COc1c(OCCCN2CCOCC2)ccc2c3n(c(=NC(=O)c4cnc(N)nc4)nc12)CCN3 | 62.6
Cn1nccc1Nc1nccc(-c2ccn(C(CO)c3ccc(Cl)c(F)c3)c(=O)c2)n1 (stereo not given) + CC(Nc1ccc2c(c1)OCCn1cc(N3C(=O)OCC3C(F)F)nc1-2)C(N)=O | 116
Cn1nccc1Nc1nccc(-c2ccn(C(CO)c3ccc(Cl)c(F)c3)c(=O)c2)n1 (stereo not given) + COc1c(OCCCN2CCOCC2)ccc2c3n(c(=NC(=O)c4cnc(N)nc4)nc12)CCN3 | 50.5
C#Cc1c(F)ccc2cc(O)cc(-c3ncc4c(N5CC6CCC(C5)N6)nc(OCC56CCCN5CC(F)C6)nc4c3F)c12 (stereo not given) + CC(Nc1ccc2c(c1)OCCn1cc(N3C(=O)OCC3C(F)F)nc1-2)C(N)=O | 86.5
Cn1ncc(Cl)c1-c1cc(C(=O)NC(CN)Cc2cccc(F)c2)sc1Cl (stereo not given) + COc1c(OCCCN2CCOCC2)ccc2c3n(c(=NC(=O)c4cnc(N)nc4)nc12)CCN3 | 45.5
CC1(C)CCC(CN2CCN(c3ccc(C(=O)NS(=O)(=O)c4ccc(NCC5CCOCC5)c([N+](=O)[O-])c4)c(Oc4cnc5[nH]ccc5c4)c3)CC2)=C(c2ccc(Cl)cc2)C1 + COc1c(OCCCN2CCOCC2)ccc2c3n(c(=NC(=O)c4cnc(N)nc4)nc12)CCN3 | 57.5

Give one value of viability, T/C per listed molecule.
1. CC(Cn1ccc(-c2ccc(C#N)c(Cl)c2)n1)NC(=O)c1cc(C(C)O)[nH]n1 (stereo not given) + COc1c(OCCCN2CCOCC2)ccc2c3n(c(=NC(=O)c4cnc(N)nc4)nc12)CCN3
2. CC1(C)CCC(CN2CCN(c3ccc(C(=O)NS(=O)(=O)c4ccc(NCC5CCOCC5)c([N+](=O)[O-])c4)c(Oc4cnc5[nH]ccc5c4)c3)CC2)=C(c2ccc(Cl)cc2)C1 + CC(Nc1ccc2c(c1)OCCn1cc(N3C(=O)OCC3C(F)F)nc1-2)C(N)=O
3. CC(Cn1ccc(-c2ccc(C#N)c(Cl)c2)n1)NC(=O)c1cc(C(C)O)[nH]n1 (stereo not given) + CC(Nc1ccc2c(c1)OCCn1cc(N3C(=O)OCC3C(F)F)nc1-2)C(N)=O
4. CCCS(=O)(=O)Nc1ccc(F)c(C(=O)c2c[nH]c3ncc(-c4ccc(Cl)cc4)cc23)c1F + CC(Nc1ccc2c(c1)OCCn1cc(N3C(=O)OCC3C(F)F)nc1-2)C(N)=O

Response:
114
69
116
43.5
